Method Summary: Cytotoxicity against human MT4 cells assessed as reduction in cell viability measured after 4 to 5 days by celltiter-glo assay
Assay type: cell-based
Conditions: time 4-5 day
// assign met if CC50 falls strictly below 8 µM, else not met (ties count as not met)

*Q* Answer whether the compound `CCCCC(CO)(CCCC)Nc1nc(N)nc2cccnc12` has CC50 strictly less than 8 µM
*A* not met

*Q* Thanks! And `CCCCCC[C@](C)(CO)Nc1nc(N)nc2cccnc12` ?
*A* met

*Q* Thanks! And `CCCC[C@@](C)(CO)Nc1nc(N)nc2cccnc12` ?
*A* not met

*Q* Thanks! And `CCCC[C@](C)(CO[C@@H]1O[C@H](C(=O)O)[C@@H](O)[C@H](O)[C@H]1O)Nc1nc(N)nc2cc(F)cnc12` ?
*A* not met

*Q* Thanks! And `CCCCC[C@](C)(CO)Nc1nc(N)nc2cccnc12` ?
*A* not met

*Q* Thanks! And `CCCC[C@@](C)(Nc1nc(N)nc2cc(F)cnc12)C(=O)O` ?
*A* not met

*Q* Thanks! And `CCCC[C@@](C)(CO)Nc1nc(N)nc2cc(F)cnc12` ?
*A* met

*Q* Thanks! And `C[C@](CO)(CCCCO)Nc1nc(N)nc2cc(F)cnc12` ?
*A* not met

*Q* Thanks! And `CCC[C@](C)(CO)Nc1nc(N)nc2cccnc12` ?
*A* not met

*Q* Thanks! And `CCCC[C@](C)(CO)Nc1nc(N)nc2cc(C)cnc12` ?
*A* not met

###

Method Summary: Clearance in human hepatic microsomes at 2 uM measured up to 60 mins in presence of NADPH generating system by LC-MS/MS analysis
Format: ADME, Microsome
Conditions: liver microsomes
Measure Name: CLhep predicted at 2 µM
# number then unit; no other words

*Q* Entry `CCCC[C@](C)(CO)Nc1nc(N)nc2cc(F)cnc12` has what CLhep predicted at 2 µM?
*A* 16.7 mL/min/kg

*Q* Thanks! And `CCCC[C@@](C)(CO)Nc1nc(N)nc2cccnc12` ?
*A* 13.3 mL/min/kg

*Q* Thanks! And `CCCC[C@](C)(CO)Nc1nc(N)nc2cccnc12` ?
*A* 13.3 mL/min/kg

*Q* Thanks! And `CCCC[C@](C)(CO)Nc1nc(N)nc2cc(C)cnc12` ?
*A* 8.33 mL/min/kg

*Q* Thanks! And `CCCC[C@](C)(CO)Nc1nc(N)nc2cc(Cl)cnc12` ?
*A* 16.7 mL/min/kg

###

Provide the recorded pEC50 for the entries that follow.
Experimental System: Toll-like receptor 8 (Homo sapiens, UniProt Q9NR97)
Sequence (Q9NR97 whole entry): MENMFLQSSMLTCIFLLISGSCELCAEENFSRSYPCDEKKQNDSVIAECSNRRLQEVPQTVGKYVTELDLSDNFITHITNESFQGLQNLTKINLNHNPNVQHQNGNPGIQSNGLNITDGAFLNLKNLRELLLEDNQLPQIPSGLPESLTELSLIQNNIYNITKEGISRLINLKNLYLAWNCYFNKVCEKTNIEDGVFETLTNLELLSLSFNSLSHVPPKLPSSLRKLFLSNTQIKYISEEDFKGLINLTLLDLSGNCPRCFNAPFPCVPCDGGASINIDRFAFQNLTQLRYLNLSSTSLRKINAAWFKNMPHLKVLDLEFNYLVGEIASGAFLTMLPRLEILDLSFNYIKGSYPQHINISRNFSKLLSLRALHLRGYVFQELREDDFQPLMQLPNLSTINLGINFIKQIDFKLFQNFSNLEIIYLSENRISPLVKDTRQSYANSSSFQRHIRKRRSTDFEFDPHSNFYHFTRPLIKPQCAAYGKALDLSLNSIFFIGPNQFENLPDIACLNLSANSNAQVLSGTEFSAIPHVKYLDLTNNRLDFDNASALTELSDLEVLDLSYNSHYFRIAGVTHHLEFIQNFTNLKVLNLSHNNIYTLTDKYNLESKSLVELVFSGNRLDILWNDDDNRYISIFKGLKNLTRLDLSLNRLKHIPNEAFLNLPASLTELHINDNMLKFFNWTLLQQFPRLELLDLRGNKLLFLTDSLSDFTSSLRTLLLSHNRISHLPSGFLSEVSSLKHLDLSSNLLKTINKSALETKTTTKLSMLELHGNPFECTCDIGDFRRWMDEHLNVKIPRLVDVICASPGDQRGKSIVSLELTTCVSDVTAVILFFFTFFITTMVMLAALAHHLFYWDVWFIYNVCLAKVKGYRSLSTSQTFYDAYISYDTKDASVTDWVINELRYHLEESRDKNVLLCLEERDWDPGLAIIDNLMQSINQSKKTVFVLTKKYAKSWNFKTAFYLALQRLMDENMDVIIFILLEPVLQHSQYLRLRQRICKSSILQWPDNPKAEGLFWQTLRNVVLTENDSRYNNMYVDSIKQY
Method Summary: Agonist activity at TLR8 in human cryopreserved PBMC assessed as induction of IL-12p40 production measured after 24 hrs
// scale note: pEC50 = -log10(conc_M); give the bare number

*Q* Entry `CCCC[C@H](CO)Nc1nc(N)nc2cccnc12` has what pEC50?
*A* 6.10

*Q* Thanks! And `CCCC[C@@H](CO)Nc1nc(N)nc2ccccc12` ?
*A* 6.15

*Q* Thanks! And `CCCN(CCC)C(=O)C1=Cc2ccc(-c3ccc(C(=O)N4CCCC4)cc3)cc2N=C(N)C1` ?
*A* 5.89

*Q* Thanks! And `CCCC[C@@](C)(CO)Nc1nc(N)nc2cc(F)cnc12` ?
*A* 5.48

*Q* Thanks! And `CCCCCC[C@](C)(CO)Nc1nc(N)nc2cccnc12` ?
*A* 5.00
